Assay: solubility in aqueous media
Assay type: physicochemical
Details: even in the presence of surfactants
measurement-name: solubility

INSERT INTO assay_data (compound, result_value) VALUES
  ('COc1cc(N2CCN(C3CCN(c4ccc(F)c5cccnc45)CC3)CC2)c2ncccc2c1 [free base]', '~0.4 µg/mL');
